The reported numbers originate from ChEMBL document CHEMBL4425184.

# assayed target: Heat shock protein HSP 90-alpha (Homo sapiens, UniProt P07900)
# measurement notes: Displacement of fluorescent labelled-VER00051001 from N-terminal ATP-binding site of human recombinant HSP90A expressed in Escherichia coli measured after 32 hrs by fluorescence polarization assay
pIC50: −log10 of the molar value.
# pIC50 per record follows
reported endpoint: pIC50

1) COc1ccc([C@H]2c3cccc(c3O)NC(=O)/C(C)=C/C=C\[C@H](OC)[C@@H](OC(N)=O)/C(C)=C/[C@H](C)[C@@H](OC)[C@@H](OC)C[C@@H]2C)cc1 : 7.00
2) CO[C@H]1/C=C\C=C(/C)C(=O)NC2=CC(=O)C=C(C2=O)[C@H](OC)[C@@H](C)C[C@H](OC)[C@H](O)[C@@H](C)/C=C(\C)[C@@H]1OC(N)=O : 7.73
3) COc1ccc([C@H]2c3cccc(c3O)NC(=O)/C(C)=C/C=C\[C@H](OC)[C@@H](OC(N)=O)/C(C)=C/[C@H](C)[C@@H](O)[C@@H](OC)C[C@@H]2C)cc1 : 7.25

----------
# pIC50 per record follows
# assayed target: UniProt P07900
# measurement notes: Displacement of fluorescent labelled-VER00051001 from N-terminal ATP-binding site of human recombinant HSP90A expressed in Escherichia coli measured after 44 hrs by fluorescence polarization assay
pIC50: −log10 of the molar value.
reported endpoint: pIC50

1. COc1ccc([C@H]2c3cccc(c3O)NC(=O)/C(C)=C/C=C\[C@H](OC)[C@@H](OC(N)=O)/C(C)=C/[C@H](C)[C@@H](OC)[C@@H](OC)C[C@@H]2C)cc1 : 7.01
2. CO[C@H]1/C=C\C=C(/C)C(=O)NC2=CC(=O)C=C(C2=O)[C@H](OC)[C@@H](C)C[C@H](OC)[C@H](O)[C@@H](C)/C=C(\C)[C@@H]1OC(N)=O : 7.74
3. COc1ccc([C@H]2c3cccc(c3O)NC(=O)/C(C)=C/C=C\[C@H](OC)[C@@H](OC(N)=O)/C(C)=C/[C@H](C)[C@@H](O)[C@@H](OC)C[C@@H]2C)cc1 : 7.25

----------
# System: A-375
# measurement notes: Antiproliferative activity against human A375 assessed as reduction in cell viability measured after 96 hrs by MTT assay
# Type: functional, cell-based
# assay conditions: A-375, 96 h
pIC50: −log10 of the molar value.
# pIC50 per record follows
reported endpoint: pIC50

1. COc1ccc([C@H]2c3cccc(c3O)NC(=O)/C(C)=C/C=C\[C@H](OC)[C@@H](OC(N)=O)/C(C)=C/[C@H](C)[C@@H](O)[C@@H](OC)C[C@@H]2C)cc1 : 6.35
2. COc1ccc([C@H]2c3cccc(c3O)NC(=O)/C(C)=C/C=C\[C@H](OC)[C@@H](OC(N)=O)/C(C)=C/[C@H](C)[C@@H](OC)[C@@H](OC)C[C@@H]2C)cc1 : 5.59
3. CO[C@H]1/C=C\C=C(/C)C(=O)NC2=CC(=O)C=C(C2=O)[C@H](OC)[C@@H](C)C[C@H](OC)[C@H](O)[C@@H](C)/C=C(\C)[C@@H]1OC(N)=O : 5.61

----------
# assayed target: Heat shock protein HSP 90-alpha (Homo sapiens, UniProt P07900)
# measurement notes: Displacement of fluorescent labelled-VER00051001 from N-terminal ATP-binding site of human recombinant HSP90A expressed in Escherichia coli measured after 20 hrs by fluorescence polarization assay
pIC50: −log10 of the molar value.
reported endpoint: pIC50

1. CO[C@H]1/C=C\C=C(/C)C(=O)NC2=CC(=O)C=C(C2=O)[C@H](OC)[C@@H](C)C[C@H](OC)[C@H](O)[C@@H](C)/C=C(\C)[C@@H]1OC(N)=O : 7.65
2. COc1ccc([C@H]2c3cccc(c3O)NC(=O)/C(C)=C/C=C\[C@H](OC)[C@@H](OC(N)=O)/C(C)=C/[C@H](C)[C@@H](OC)[C@@H](OC)C[C@@H]2C)cc1 : 6.92
3. COc1ccc([C@H]2c3cccc(c3O)NC(=O)/C(C)=C/C=C\[C@H](OC)[C@@H](OC(N)=O)/C(C)=C/[C@H](C)[C@@H](O)[C@@H](OC)C[C@@H]2C)cc1 : 7.19
